System: anaplastic large cell lymphoma cells (DELBVR)
Assay: In vitro potency (CellTiter-Glo, 96 h) on DELBVR
Type: cell-based
Settings: 96 h, CPT free drugs; CellTiter-Glo after 96 h exposure; read-out: DELBVR IC50
Could you please report measured IC50 for the items listed next?
Answers are plain numbers, in nM.

Example compounds with recorded IC50:
CC[C@@]1(O)C(=O)OCc2c1cc1n(c2=O)Cc2c-1nc1cc(F)c(C)c(C3=CCN(C)CC3)c1c2CN; 15
CC[C@@]1(O)C(=O)OCc2c1cc1n(c2=O)Cc2c-1nc1cc(F)c3c(c1c2CN)CCC3; 1
CC[C@@]1(O)C(=O)OCc2c1cc1n(c2=O)Cc2c-1nc1cc3c(cc1c2CN)C(C)CO3 (stereo partly shown); 2

anaplastic large cell lymphoma cells (DELBVR) IC50 of CC[C@@]1(O)C(=O)OCc2c1cc1n(c2=O)Cc2c-1nc1ccc(SC)c(F)c1c2CN is 1

###

System: anaplastic large cell lymphoma cells (DEL)
Experiment: In vitro potency (CellTiter-Glo, 96 h) on DEL
Assay type: cell-based
Conditions: 96 h, read-out: DEL IC50
Could you please report measured pIC50 for the items listed next?
Give bare numbers, as −log10 of the molar value.

Example compounds with recorded pIC50:
CC[C@@]1(O)C(=O)OCc2c1cc1n(c2=O)Cc2c-1nc1cc3c(cc1c2Cn1cnc(CO)c1)OCO3; 7.85
CC[C@@]1(O)C(=O)OCc2c1cc1n(c2=O)Cc2c-1nc1cc(F)c(C)c(Cl)c1c2CNC(C)=O [Compound 12a]; 9.70

// batch mode: one pIC50 value per listed entry
1. CC[C@@]1(O)C(=O)OCc2c1cc1n(c2=O)Cc2c-1nc1cc3c(cc1c2CNC[C@H](O)CO)OCO3
2. CC[C@@]1(O)C(=O)OCc2c1cc1n(c2=O)Cc2c-1nc1cc3c(cc1c2CN)CCO3
3. CC[C@@]1(O)C(=O)OCc2c1cc1n(c2=O)Cc2c-1nc1cc3c(cc1c2CNC1CCOC1)OCO3 (stereo partly drawn)

stdout:
1. 8.30
2. 9.00
3. 9.70

###

Could you please report measured IC50 for the items listed next?
Tested on: Hodgkin's lymphoma cells (L540cy)
Assay: In vitro potency (CellTiter-Glo, 96 h) on L540cy
Format: cell-based
Settings: L540cy, 96 h, read-out: L540cy IC50
Answers are plain numbers, in nM.

CC[C@@]1(O)C(=O)OCc2c1cc1n(c2=O)Cc2c-1nc1cc3c(cc1c2CNC[C@H](O)CN1CCCCC1)OCO3; 51

// batch mode: one IC50 value per listed entry
1. CC[C@@]1(O)C(=O)OCc2c1cc1n(c2=O)Cc2c-1nc1cc3c(cc1c2CN1CCN(CCN)CC1)OCO3
2. C=Cc1c(C)c(F)cc2nc3c(c(CN)c12)Cn1c-3cc2c(c1=O)COC(=O)[C@]2(O)CC
3. CC[C@@]1(O)C(=O)OCc2c1cc1n(c2=O)Cc2c-1nc1cc3c(cc1c2CN)CCO3
4. CC[C@@]1(O)C(=O)OCc2c1cc1n(c2=O)Cc2c-1nc1cc3c(cc1c2CNC1CCN(C)CC1)OCO3
5. CC[C@@]1(O)C(=O)OCc2c1cc1n(c2=O)Cc2c-1nc1cc3c(cc1c2CNC(=O)CN)CCO3
6. CC[C@@]1(O)C(=O)OCc2c1cc1n(c2=O)Cc2c-1nc1cc3c(cc1c2CNCCN1CCNCC1)OCO3
7. CC[C@@]1(O)C(=O)OCc2c1cc1n(c2=O)Cc2c-1nc1cc(F)c(C)c(C=C(C)C)c1c2CN

stdout:
1: 14; 2: 1; 3: 2; 4: 6; 5: 45; 6: 56; 7: 4

###

Could you please report measured IC50 for the items listed next?
Tested on: anaplastic large cell lymphoma cells (Karpas299)
Assay: In vitro potency (CellTiter-Glo, 96 h) on Karpas299
Type: cell-based
Settings: Homo sapiens, KARPAS-299, 96 h, CPT free drugs; CellTiter-Glo after 96 h exposure; read-out: Karpas299 IC50
Method: In vitro potency was assessed on multiple cancer cell lines. All cell lines were authenticated by STR profiling at IDEXX Bioresearch and cultured for no more than 2 months after resuscitation. […] After 96 hours, growth inhibition was assessed by CellTiterGlo® (Promega, Madison, WI) and luminescence was measured on a plate reader. Cell viability was determined by CellTiter-Glo staining after 96h exposure to ADC. ND=Not Determined. […]
Give bare numbers, in µM.

CC[C@@]1(O)C(=O)OCc2c1cc1n(c2=O)Cc2c-1nc1cc(F)c(C)c(C3=CCN(C(C)=O)CC3)c1c2CN; 0.04

// batch mode: one IC50 value per listed entry
1. CC[C@@]1(O)C(=O)OCc2c1cc1n(c2=O)Cc2c-1nc1cc(F)c(C)c(-c3ccoc3)c1c2CN
2. CC[C@@]1(O)C(=O)OCc2c1cc1n(c2=O)Cc2c-1nc1cc(Br)c(OC)c(F)c1c2CN

stdout:
[0.003, 0.065]

###

Test system: anaplastic large cell lymphoma cells (Karpas299)
Assay: In vitro potency (CellTiter-Glo, 96 h) on Karpas299
Format: cell-based
Conditions: Homo sapiens, KARPAS-299, 96 h, CPT free drugs; CellTiter-Glo after 96 h exposure; read-out: Karpas299 IC50
Could you please report measured IC50 for the items listed next?
Numbers only, in nM.

CC[C@@]1(O)C(=O)OCc2c1cc1n(c2=O)Cc2c-1nc1cc(F)c(C)c3c1c2[C@@H](NC(=O)CN)CC3 [Compound 13b]; 11
CC[C@@]1(O)C(=O)OCc2c1cc1n(c2=O)Cc2c-1nc1cc(F)c(C)c(-c3cccs3)c1c2CN; 24
CC[C@@]1(O)C(=O)OCc2c1cc1n(c2=O)Cc2c-1nc1ccc(SC)c(F)c1c2CN; 5

# compound CC[C@@]1(O)C(=O)OCc2c1cc1n(c2=O)Cc2c-1nc1cc3c(cc1c2Cn1ccnc1)OCO3 ; its IC50 = 6

###

Tested on: anaplastic large cell lymphoma cells (Karpas299)
Test: In vitro potency (CellTiter-Glo, 96 h) on Karpas299
Assay type: cell-based
Conditions: Homo sapiens, KARPAS-299, 96 h, read-out: Karpas299 IC50
Field: class. Source value: IC50. Ranges: low range = under 0.008 µM, mid range = from 0.008 µM up to 0.06 µM, high range = 0.06 µM and over

Use these answered entries as a reference point.
CC[C@@]1(O)C(=O)OCc2c1cc1n(c2=O)Cc2c-1nc1cc(F)c(C)c(Cl)c1c2CNC(C)=O [Compound 12a]; low range
CC[C@@]1(O)C(=O)OCc2c1cc1n(c2=O)Cc2c-1nc1cc3c(cc1c2CNC1CCOC1)OCO3 (stereo partly drawn) [Compound 7ah]; low range
CC[C@@]1(O)C(=O)OCc2c1cc1n(c2=O)Cc2c-1nc1cc3c(cc1c2CN1CCC(N)CC1)OCO3 [Compound 8f]; high range
CC[C@@]1(O)C(=O)OCc2c1cc1n(c2=O)Cc2c-1nc1cc3c(cc1c2CNC1CCNCC1)OCO3 [Compound 8e]; high range
CC[C@@]1(O)C(=O)OCc2c1cc1n(c2=O)Cc2c-1nc1cc3c(cc1c2CNC[C@H](O)CO)OCO3 [Compound 7n]; mid range

stdin: Exam item: assign C=C(C)c1c(C)c(F)cc2nc3c(c(CN)c12)Cn1c-3cc2c(c1=O)COC(=O)[C@]2(O)CC [Compound 2al] to the correct category.
stdout: low range

stdin: Exam item: assign CC[C@@]1(O)C(=O)OCc2c1cc1n(c2=O)Cc2c-1nc1cc3c(cc1c2CNCCCN1CCNCC1)OCO3 [Compound 8d] to the correct category.
stdout: mid range

stdin: Exam item: assign CC[C@@]1(O)C(=O)OCc2c1cc1n(c2=O)Cc2c-1nc1cc3c(cc1c2Cn1cnc(CO)c1)OCO3 [Compound 7aj] to the correct category.
stdout: mid range

stdin: Exam item: assign CC[C@@]1(O)C(=O)OCc2c1cc1n(c2=O)Cc2c-1nc1cc3c(cc1c2CNC(C)=O)CCO3 [Compound 12] to the correct category.
stdout: mid range

stdin: Exam item: assign CC[C@@]1(O)C(=O)OCc2c1cc1n(c2=O)Cc2c-1nc1cc3c(cc1c2CNCC(O)CN1CCOCC1)OCO3 (stereo partly drawn) [Compound 7i] to the correct category.
stdout: high range

stdin: Exam item: assign CC[C@@]1(O)C(=O)OCc2c1cc1n(c2=O)Cc2c-1nc1cc3c(cc1c2CNCCN1CCNCC1)OCO3 [Compound 8b] to the correct category.
stdout: high range

stdin: Exam item: assign CC[C@@]1(O)C(=O)OCc2c1cc1n(c2=O)Cc2c-1nc1cc3c(cc1c2CNCCCN1CCN(C)CC1)OCO3 [Compound 7h] to the correct category.
stdout: mid range

stdin: Exam item: assign CC[C@@]1(O)C(=O)OCc2c1cc1n(c2=O)Cc2c-1nc1cc3c(cc1c2CN1CCN(CCN)CC1)OCO3 [Compound 8c] to the correct category.
stdout: mid range

stdin: Exam item: assign CC[C@@]1(O)C(=O)OCc2c1cc1n(c2=O)Cc2c-1nc1cc3c(cc1c2CNCCOC)OCO3 [Compound 7ag] to the correct category.
stdout: low range
